Target: T1, DVL2 416-511 DEP (domain begin residue: 416, domain end residue: 511), O14641
T1 chain: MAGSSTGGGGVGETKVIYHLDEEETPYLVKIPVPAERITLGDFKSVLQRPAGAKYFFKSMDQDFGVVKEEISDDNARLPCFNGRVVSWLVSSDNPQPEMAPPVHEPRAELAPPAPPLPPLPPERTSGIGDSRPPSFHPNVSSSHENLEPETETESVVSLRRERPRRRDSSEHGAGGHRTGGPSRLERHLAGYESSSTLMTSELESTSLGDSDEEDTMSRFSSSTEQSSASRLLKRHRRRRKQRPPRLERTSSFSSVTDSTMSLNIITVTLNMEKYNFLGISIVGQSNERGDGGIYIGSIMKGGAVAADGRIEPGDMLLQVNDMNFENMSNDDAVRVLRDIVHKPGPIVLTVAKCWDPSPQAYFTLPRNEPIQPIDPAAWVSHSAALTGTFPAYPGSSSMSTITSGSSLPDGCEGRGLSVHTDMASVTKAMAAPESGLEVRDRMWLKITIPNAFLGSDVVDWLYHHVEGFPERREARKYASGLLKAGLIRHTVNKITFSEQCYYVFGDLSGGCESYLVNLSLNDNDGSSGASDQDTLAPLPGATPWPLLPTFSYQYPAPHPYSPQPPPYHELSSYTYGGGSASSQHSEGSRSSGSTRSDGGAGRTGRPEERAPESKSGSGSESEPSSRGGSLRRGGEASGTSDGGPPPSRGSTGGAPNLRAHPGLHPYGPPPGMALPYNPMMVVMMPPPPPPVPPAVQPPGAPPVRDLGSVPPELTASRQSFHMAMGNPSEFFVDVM
Experiment: phage ELISA signal ratio (GST-PRM binding over GST background); higher = stronger binding of peptide-phage to the PRM
reportedMetric: phage ELISA signal ratio

Known results for binders:
- binder: "MWFWNLDEAMPIWTAM"
  reportedMetric: "phage ELISA signal ratio"
  assayResult: 13.3
- binder: "KWMIDLTDWEAYWVPS"
  reportedMetric: "phage ELISA signal ratio"
  assayResult: 26.7

IN: Look up phage ELISA signal ratio: "PLENPTYKDGLWWWSV"
OUT: 24.4

Just for reference, the supplement of paper PMC7724964 is where these values come from.
